This collection of values is drawn from the supplement of paper PMC10567573.

B1: ZNF263 (parent)
chain: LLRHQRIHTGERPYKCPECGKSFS

variants of: B1; experiment: protein stability index of a GFP-peptide fusion (GPS, HEK-293T) (PSI 1-6); higher = more stable; conditions: c terminus: a fixed tail appended;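 also: lentivirally expressed fusions sorted by FACS into six bins by GFP to DsRed ratio, PSI derived from sequencing read proportions per bin multiplied by bin number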
Examples of variants with documented protein stability index follow.
// print number alone

The following variants have reported results that may help.
LLRHQRIHTQERPYKCPECGKSFS; 2.86
LLRHQRIHTGERPYKCPYCGKSFS; 3.02
LLRHQRIHTGERPYKCPECGKSFI; 2.11
LLRHQRRHTGERPYKCPECGKSFS; 2.55

Prompt: State the recorded protein stability index for this entry: LLRHQRIHTGERPYKCPECQKSFS
Completion: 1.86

Prompt: State the recorded protein stability index for this entry: LLRHQRIHTNERPYKCPECGKSFS
Completion: 3.12

Prompt: State the recorded protein stability index for this entry: LLRHQRIHTGNRPYKCPECGKSFS
Completion: 2.32

Prompt: State the recorded protein stability index for this entry: LLRHQRIHTGERPYKCPECGISFS
Completion: 1.68

Prompt: State the recorded protein stability index for this entry: LLAHQRIHTGERPYKCPECGKSFS
Completion: 3.21

Prompt: State the recorded protein stability index for this entry: LLRHQRIHTGERPYKCPECGQSFS
Completion: 2.75
